Data provenance: the RNAGym collection of RNA variant scans (doi:10.1093/molbev/msab373)

B1: Azoarcus group I ribozyme (parent)
chain: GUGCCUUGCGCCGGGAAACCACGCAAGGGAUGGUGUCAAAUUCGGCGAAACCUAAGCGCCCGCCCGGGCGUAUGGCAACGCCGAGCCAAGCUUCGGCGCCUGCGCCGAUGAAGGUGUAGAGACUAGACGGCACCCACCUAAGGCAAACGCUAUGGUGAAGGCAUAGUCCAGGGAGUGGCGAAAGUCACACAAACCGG

variants of: B1; assay: reverse-splicing fitness (ratio to wild type); higher = more active; in vitro selection; Mg2+ level not given
Condition met means recorded reverse-splicing fitness is 0.005 or above; Condition not met means it is below 0.005.

These solved cases illustrate the format of a correct answer.
variantDescription	classAssignment
C82A A120U C150G C169A U176G	Condition not met
C82G A111U A120U A145U	Condition met
C82A A111G A120G C169G U176C	Condition met
C82G A111G A120G A145C C150A C169G	Condition met
C82A A120G A145G C150A C169U U176A	Condition met
C82A A111G A120U A145C C169G U176C	Condition not met
C82G A111U A120C A145U C150U C169A U176G	Condition met
C82G A120U C150A C169G U176C	Condition not met

Asked: Determine whether this variant has reverse-splicing fitness no lower than 0.005: A111G A120U A145C C150U C169A U176C
Given back: Condition not met

Asked: Repeat for the following variant: C82U A111C A120U A145G C150U C169U U176A
Given back: Condition met

Asked: Repeat for the following variant: C82A A111U A120U A145U C150G C169U U176A
Given back: Condition not met

Asked: Repeat for the following variant: A111G A120G A145C C150G
Given back: Condition met

Asked: Repeat for the following variant: C82A A111C A120C A145U C150G U176G
Given back: Condition not met

Asked: Repeat for the following variant: C82A A111G A120G A145G C150G C169G U176A
Given back: Condition met

Asked: Repeat for the following variant: A111U A120U C150G C169G U176A
Given back: Condition not met

Asked: Repeat for the following variant: C82U A111C A145G C150G C169U U176C
Given back: Condition met

Asked: Repeat for the following variant: C82A A111C A145U C150G C169U U176C
Given back: Condition met

Asked: Repeat for the following variant: A120U A145G C150A C169U U176C
Given back: Condition met

Asked: Repeat for the following variant: C82U A111C A120C A145U C150G C169A U176A
Given back: Condition met

Asked: Repeat for the following variant: C82U A111C A120G A145U C150A C169G U176A
Given back: Condition met

Asked: Repeat for the following variant: A111G A120C A145U C150A U176A
Given back: Condition met

Asked: Repeat for the following variant: A111U A120C C150U C169A
Given back: Condition met

Asked: Repeat for the following variant: C82G A111C A120G A145U C169A U176G
Given back: Condition not met

Asked: Repeat for the following variant: A111U A120U A145U C150G C169A U176G
Given back: Condition not met

Asked: Repeat for the following variant: C82A A111U A120U A145G C150G U176A
Given back: Condition met

Asked: Repeat for the following variant: A111U A120G A145C C169G U176G
Given back: Condition not met

Asked: Repeat for the following variant: C82A A111U A120G C150U U176G
Given back: Condition met

Asked: Repeat for the following variant: C82A A111U A120G A145U C150G C169A U176C
Given back: Condition met

Asked: Repeat for the following variant: C82A A120C C150G C169U U176C
Given back: Condition met

Asked: Repeat for the following variant: A111U A120U A145U C150G C169G U176C
Given back: Condition not met

Asked: Repeat for the following variant: C82A A111U A120G A145C U176G
Given back: Condition met

Asked: Repeat for the following variant: C82A A111G C169U U176A
Given back: Condition met
